TESTED_SYSTEM: synthetic human Aβ1-42 fibrils (Homo sapiens)
Construct: Synthetic lyophilized human Aβ1-42 peptide; purchased EMC Microcollections, Tuebingen, Germany; host or cells: chemical synthesis
ASSAY_PROTOCOL: Competition binding assay against [^3H]SIL26 on Aβ1-42 fibrils
VALUE_KIND: Ki (nM)

What value of Ki on synthetic human Aβ1-42 fibrils (Homo sapiens) does COc1ccc2c(c1)Sc1cc(-c3cc(-c4cccc(F)c4)n[nH]3)ccc1N2 [DAP1c] have?
1

P: COc1ccc2c(c1)Sc1cc(-c3cc(-c4ccccn4)n[nH]3)ccc1N2 [DAP1b]
Q: COc1cccc(Sc2cc(-c3cc(-c4ccccc4)n[nH]3)ccc2N)c1 [DAP3a]
R: FCCOc1ccc2c(c1)Sc1cc(-c3cc(-c4cccc(F)c4)n[nH]3)ccc1N2 [DAP2c]
Would you mind ranking these molecules by ascending Ki? // ordering of labels required in reply
R, P, Q
(R: 3.1 nM, P: 7.6 nM, Q: 86.1 nM)

1: COc1ccc2c(c1)Sc1cc(-c3cc(-c4ccccc4)n[nH]3)ccc1N2 [DAP1a]
2: FCCOc1ccc2c(c1)Sc1cc(-c3cc(-c4ccccc4)n[nH]3)ccc1N2 [DAP2a]
3: FCCOc1ccc2c(c1)Sc1cc(-c3cc(-c4ccccn4)n[nH]3)ccc1N2 [DAP2b]
Provide the items ranked by increasing Ki. List the labels, following the order given in the request.
1, 2, 3

###

TESTED_SYSTEM: synthetic human Aβ1-42 fibrils (Homo sapiens, UniProt P05067)
Construct: Synthetic lyophilized human Aβ1-42 peptide; purchased EMC Microcollections, Tuebingen, Germany; host or cells: chemical synthesis
Sequence (P05067 672-713 limits assumed): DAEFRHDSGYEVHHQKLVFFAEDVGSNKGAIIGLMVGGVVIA
ASSAY_PROTOCOL: Competition binding assay against [^3H]MODAG−001 on Aβ1-42 fibrils
COND: competition vs 1 nM [^3H]MODAG−001, Aβ1-42 fibrils 1 µM; mean ± SEM; read-out: Aβ—Ki [^3H]MODAG−001
pKi: −log10 of the molar value.
VALUE_KIND: pKi

Given COc1ccc2c(c1)Sc1cc(-c3cc(-c4cccc(F)c4)n[nH]3)ccc1N2 , state its recorded pKi.
7.80

Returns the measured pKi for the input molecule. Input: FCCOc1ccc2c(c1)Sc1cc(-c3cc(-c4ccccc4)n[nH]3)ccc1N2
8.11

# get_value(readout='pKi', item= COc1ccc2c(c1)Sc1cc(-c3cc(-c4ccccn4)n[nH]3)ccc1N2 )
7.99

Sample FCCOc1ccc2c(c1)Sc1cc(-c3cc(-c4ccccn4)n[nH]3)ccc1N2 — what was its pKi?
7.91

So what does the record say about pKi for FCCOc1ccc2c(c1)Sc1cc(-c3cc(-c4cccc(F)c4)n[nH]3)ccc1N2 ?
8.10

Need pKi of COc1ccc2c(c1)Sc1cc(-c3cc(-c4ccccc4)n[nH]3)ccc1N2 , thanks.
7.98

###

TESTED_SYSTEM: human recombinant αSYN fibrils (Homo sapiens, UniProt P37840)
ASSAY_PROTOCOL: Competition binding assay against [^3H]MODAG−001 on αSYN fibrils
pKi: −log10 of the molar value.
VALUE_KIND: pKi

Below, 2 compounds whose answers are already recorded.
I'd like to know its pKi. The compound in question is FCCOc1ccc2c(c1)Sc1cc(-c3cc(-c4ccccc4)n[nH]3)ccc1N2
6.84

Query: pKi; subject: COc1ccc2c(c1)Sc1cc(-c3cc(-c4ccccn4)n[nH]3)ccc1N2
7.16

P: COc1ccc2c(c1)Sc1cc(-c3cc(-c4ccccc4)n[nH]3)ccc1N2
Q: FCCOc1ccc2c(c1)Sc1cc(-c3cc(-c4ccccn4)n[nH]3)ccc1N2
Could you please tell me which of these two has the higher pKi: P or Q ? In your reply, give the label of the chosen option.
Q
(Q: 6.97, P: 6.54)
